- Target or system: Adenosine receptor A2a (Homo sapiens, UniProt P29274)
- Sequence (P29274 whole entry): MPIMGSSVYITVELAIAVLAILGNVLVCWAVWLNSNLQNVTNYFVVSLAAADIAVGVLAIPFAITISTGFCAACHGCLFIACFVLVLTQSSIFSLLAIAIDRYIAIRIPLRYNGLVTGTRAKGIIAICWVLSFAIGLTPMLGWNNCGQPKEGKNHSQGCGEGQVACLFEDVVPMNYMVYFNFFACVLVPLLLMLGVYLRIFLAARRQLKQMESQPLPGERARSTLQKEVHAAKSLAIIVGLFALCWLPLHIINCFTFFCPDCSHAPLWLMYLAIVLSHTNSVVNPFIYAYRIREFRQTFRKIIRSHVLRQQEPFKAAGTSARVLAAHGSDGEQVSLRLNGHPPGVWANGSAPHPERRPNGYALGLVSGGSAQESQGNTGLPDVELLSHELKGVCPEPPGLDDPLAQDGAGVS
Property label: Ki (nM)

- Structure smiles: "COc1nc(-c2cccs2)c2sccc2n1"
  Target or system: "Adenosine receptor A2a (Homo sapiens, UniProt P29274)"
  Property label: "Ki"
  Unit of measurement: "nM"
  Reported value: 444

1: Clc1nc(-c2cccs2)c2sccc2n1
2: CCc1nc(-c2ccco2)c2sccc2n1
Which numeric Ki is bigger, that of 1 or that of 2 ? Lab log: write the label of the selected item as the result.
1
